The reported numbers originate from paper PMC7160673.

System: 53BP1 TTD
Assay: Histone peptide microarray, 53BP1 TTD
Assay type: binding
Conditions: 53BP1 TTD hits, average signal per peptide
assay-metric: Avg Signal
// print number alone

ARTKQTARKSTGGK(Ac)APRK(Ac)QL-K(Biot)-NH2 [H3.1K14acK18ac]
0.1587
Ac-SGRGKGGKGLGKGGAK(Ac)RHRKVLR-Peg-Biot [Peptide H4K16ac]
0.07097
Ac-SGRGK(Ac)GGK(Ac)GLGK(Ac)GGAK(Ac)RHRKVLR-Peg-Biot [H4K5acK8acK12acK16ac]
0.1158
(Biot)Peg-MPKDIQLARRIRGERA-OH [H3.1.1(120-135)]
0.05797
AR(Me)TK(Me3)QTARKSTGGKAPRKQL-K(Biot)-NH2 [H3.1R2me1K4me3]
0.08379
ARTKQTARK(Ac)STGGKAPRK(Ac)QL-K(Biot)-NH2 [H3.1K9acK18ac]
0.0364
Ac-SGR(Me2a)GK(Ac)QGGKARAKAKTR-Peg-Biot [H2AR3me2aK5ac]
0.03444
Ac-IAQDFK(Me)TDLRF-Peg-K(Biot)-NH2 [Peptide H3.1K79me1]
0.009736
ARTKQTARK(Ac)STGGKAPRKQL-K(Biot)-NH2 (not fully specified; K9 acetyl; K(Biot)-NH2) [Peptide H3.1K9ac]
0.1022
ARTK(Me3)QpTARKSTGGKAPRKQL-K(Biot)-NH2 [Peptide H3.1K4me3T6p]
0.1846

Exercise: May I ask what Avg Signal has been recorded for Ac-SGRGK(Ac)GGK(Ac)GLGK(Ac)GGAKRHRKVLR-Peg-Biot [H4K5acK8acK12ac] ?
Solution: 0.2078

Exercise: May I ask what Avg Signal has been recorded for Ac-GKGGAKRHRK(Me2)VLRDNIQ-Peg-Biot [Peptide H4K20me2] ?
Solution: 1

Exercise: May I ask what Avg Signal has been recorded for ARTKQTARK(Ac)pSTGGKAPRKQL-K(Biot)-NH2 [Peptide H3.1K9acS10p] ?
Solution: 0.0481

Exercise: May I ask what Avg Signal has been recorded for ARTKQTAR(Me2s)K(Me2)STGGKAPRKQL-K(Biot)-NH2 [H3.1R8me2sK9me2] ?
Solution: 0.3791

Exercise: May I ask what Avg Signal has been recorded for Ac-GKGGAKRHRK(Me)VLRDNIQ-Peg-Biot [Peptide H4K20me1] ?
Solution: 0.5244
